- target: T1, biotinylated ADDL (bADDL) (UniProt P05067 672-713, N-terminal biotin)
- T1 construct: domain: Aβ1-42; Soluble oligomers of Aβ1-42; also called bADDLs; biotinylated high molecular weight ADDL
- assay details: BIACORE, bADDL as antigen; column IgG1 #2
measured attribute: pKd
pKd field: float, defined as -log10 of concentration (mol/L).

- binder: "20C2-5A IgG1 (antibody, V domains shown, IgG1 humanized A version; also called SJ-p2-1F) VH: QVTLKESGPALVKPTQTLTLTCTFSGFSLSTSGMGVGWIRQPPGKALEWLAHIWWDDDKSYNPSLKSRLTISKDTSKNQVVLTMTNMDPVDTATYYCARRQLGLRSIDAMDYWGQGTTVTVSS VL: DVVMTQSPLSLPVTPGEPASISCRSSQSILHSNGNTYLEWYLQKPGQSPQLLIYKVSNRFSGVPDRFSGSGSGTDFTLKISRVEAEDVGVYYCFQSSFVPLTFGQGTKLEIK"
  pKd: 10.17

Proceed to the following item.
Suppose we examine the binder 20C2-2A IgG1 (antibody, V domains shown, IgG1 humanized A version; also called SJ-p1-18) VH: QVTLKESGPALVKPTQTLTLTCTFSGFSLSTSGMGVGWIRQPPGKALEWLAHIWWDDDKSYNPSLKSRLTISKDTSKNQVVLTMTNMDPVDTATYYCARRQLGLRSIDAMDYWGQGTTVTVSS VL: DVVMTQSPLSLPVTPGEPASISCRSSQSILHSNGNTYLEWYLQKPGQSPQLLIYKVSNRFSGVPDRFSGSGSGTDFTLKISRVEAEDVGVYYCFQATRVPLTFGQGTKLEIK ; what pKd value has been reported?
12.52
